Source of measurements: patent US5652247A

Target: V1 receptor (Rattus norvegicus, UniProt P30560)
Construct: rat liver plasma membrane preparations
Sequence (P30560 whole entry): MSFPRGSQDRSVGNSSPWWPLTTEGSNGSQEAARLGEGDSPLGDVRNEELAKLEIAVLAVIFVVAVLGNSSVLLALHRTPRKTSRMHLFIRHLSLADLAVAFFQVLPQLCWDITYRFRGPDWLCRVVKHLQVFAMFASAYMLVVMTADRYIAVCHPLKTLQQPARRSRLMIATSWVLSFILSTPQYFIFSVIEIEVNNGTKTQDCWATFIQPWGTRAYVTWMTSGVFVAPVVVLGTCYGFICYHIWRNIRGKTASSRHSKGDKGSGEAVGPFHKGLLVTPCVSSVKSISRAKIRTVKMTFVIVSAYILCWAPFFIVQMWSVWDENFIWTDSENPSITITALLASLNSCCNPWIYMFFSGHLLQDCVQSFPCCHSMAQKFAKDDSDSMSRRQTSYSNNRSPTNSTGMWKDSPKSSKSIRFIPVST
Assay: V1 receptor binding assay
Conditions: [H]^3-Arg-vasopressin 2×10^-10 M, rat liver plasma membrane, 37° C., 10 minutes, pH 8.0
MEASURED_PROPERTY: IC50 (nM)

| MOLECULE | READOUT_UNITS | RESULT |
| --- | --- | --- |
| CN(C)c1ccc(S(=O)(=O)CCCCCOc2ccc(C(=O)N3CCC(N4C(=O)CCc5ccccc54)CC3)cc2)cc1 [Example 290] | nM | 300 |
| C#CCc1ccc(C(=O)N2CCC(N3C(=O)CCc4ccccc43)CC2)cc1 [Example 96] | nM | 600 |
